Ref: the supplement of paper PMC11208160

protocol: recombinant UMI read abundance after kanamycin selection (control-corrected) (log10(CPM+1)); higher = more efficient recombination; extreme values may be limits of the assay; sequences stand for … in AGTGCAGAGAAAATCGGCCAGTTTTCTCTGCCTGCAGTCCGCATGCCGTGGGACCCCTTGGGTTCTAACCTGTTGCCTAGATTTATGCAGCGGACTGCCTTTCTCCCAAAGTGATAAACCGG…AGGTTGGTTTCACT; site = the 11-nt donor;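 also: IS621 bridge recombinase in Escherichia coli cells against a fixed T5 target plasmid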
For each entry below, report its recombinant UMI read abundance (log10) value.
The answer should be written as a number, with no unit following it.

### Prompt Tell me its recombinant UMI read abundance (log10) given CTAAACTCATGGACCGGTTTTCCCGGTAATCCGTATTTGAA (site CTAAACTCTTT) as the entry.
### Response 3.08

### Prompt Tell me its recombinant UMI read abundance (log10) given TGAAAGGCATGGACCGGTTTTCCCGGTAATCCGTATTTGCT (site GGAAAGGCTAG) as the entry.
### Response 0

### Prompt Tell me its recombinant UMI read abundance (log10) given GGATAGACATGGACCGGTTTTCCCGGTAATCCGTATTTGGC (site GGATAGACTGA) as the entry.
### Response 1.7

### Prompt Tell me its recombinant UMI read abundance (log10) given GGGAATGCATGGACCGGTTTTCCCGGTAATCCGTATTTGGT (site GGGAATGCTAC) as the entry.
### Response 0.885

### Prompt Tell me its recombinant UMI read abundance (log10) given CCTTAGCCATGGACCGGTTTTCCCGGTAATCCGTATTTGCC (site CCTTAGCCTGG) as the entry.
### Response 0
